Value source: patent US20260355196A1

- SYSTEM_NAME: PIP4K2C (Homo sapiens)
- METHOD_NOTES: HiBiT PIP4K2C degradation assay in MOLT-4 cells (endogenous PIP4K2C C-terminally tagged with HiBiT)
- Assay type: cell-based
- Parameters: untagged in primary human PBMCs and monocyte-derived dendritic cells
- SETUP_CONDITIONS: 24 hours incubation, MOLT-4, top concentration 10 micromolar; read-out: HiBIT-degradation MOLT4 PIP4k2C 24 hours DC50
PROPERTY_NAME: DC50

Use the examples below as a reference point.
| COMPOUND | DC50 |
| --- | --- |
| O=C1CCC(N2Cc3cc(C4CCN(CC(=O)N5CCN(C(=O)[C@H]6CCC[C@@H](Nc7ncc(Cl)c(-c8cccc(-c9ccccc9)c8)n7)C6)CC5)CC4)ccc3C2=O)C(=O)N1 (relative stereo) | < 500 nM |
| O=C1CCC(N2Cc3cc(C4CCN(CC5CCN(C(=O)[C@H]6CCC[C@@H](Nc7ncc(Cl)c(-c8cccc(-c9ccccc9)c8)n7)C6)CC5)CC4)ccc3C2=O)C(=O)N1 (relative stereo) | < 500 nM |

Kindly note the recorded DC50 for O=C1CCC(n2c(=O)oc3cc(C4CCN(CCC5CCN(C(=O)[C@H]6C[C@@H](Nc7ncc(F)c(-c8cccc(-n9ccccc9=O)c8)n7)C6)CC5)CC4)ccc32)C(=O)N1 (stereo partly drawn) , which is < 500 nM

###

- SYSTEM_NAME: PIP4K2C (Homo sapiens, UniProt Q8TBX8)
- Sequence (Q8TBX8 whole entry): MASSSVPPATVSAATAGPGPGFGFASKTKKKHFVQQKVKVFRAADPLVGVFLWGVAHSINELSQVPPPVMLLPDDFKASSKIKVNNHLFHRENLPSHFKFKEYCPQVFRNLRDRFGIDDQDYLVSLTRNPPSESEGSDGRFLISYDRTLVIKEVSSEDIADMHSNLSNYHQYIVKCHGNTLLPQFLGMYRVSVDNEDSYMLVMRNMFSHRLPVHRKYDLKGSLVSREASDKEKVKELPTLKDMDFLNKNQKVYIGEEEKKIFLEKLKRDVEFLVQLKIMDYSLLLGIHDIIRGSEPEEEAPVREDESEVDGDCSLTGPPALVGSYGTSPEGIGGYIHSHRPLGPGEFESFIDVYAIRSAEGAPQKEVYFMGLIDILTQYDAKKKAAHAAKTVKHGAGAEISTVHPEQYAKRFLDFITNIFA
- METHOD_NOTES: Enzyme Binding Assay (KINOMEscan): active site-directed competition binding to an immobilized ligand
- SETUP_CONDITIONS: 11-point dose response, duplicate, top concentration 5 micromolar; read-out: Pip4k2c Kd: IC50
PROPERTY_NAME: IC50

| MOLECULE | SYSTEM_NAME | RESULT |
| --- | --- | --- |
| CC(=O)N[C@H]1CC[C@@H](Nc2ncc(Cl)c(-c3cnn(C4CC4)c3)n2)CC1 [Compound 99] | PIP4K2C (Homo sapiens, UniProt Q8TBX8) | 500 to 1000 nM |
| NC(=O)[C@H]1CC[C@H](Nc2ncc(F)c(-c3cccc(-c4ccc(=O)[nH]c4)c3)n2)CC1 [Compound 229] | PIP4K2C (Homo sapiens, UniProt Q8TBX8) | < 500 nM |
| NC(=O)[C@H]1CC[C@H](Nc2ncc(F)c(-c3ccnc(C4(O)CCC4)c3)n2)CC1 [Compound 243] | PIP4K2C (Homo sapiens, UniProt Q8TBX8) | < 500 nM |
| CNC(=O)[C@H]1CC[C@H](Nc2ncc(Cl)c(-c3cccc(-c4ccc(F)cc4)c3)n2)CC1 [Compound 101] | PIP4K2C (Homo sapiens, UniProt Q8TBX8) | < 500 nM |
| CC(=O)N[C@H]1CC[C@H](Nc2ncc(Cl)c(C3CCCN(C(=O)c4ccc(F)cc4)C3)n2)CC1 (stereo partly drawn) [Compound 124] | PIP4K2C (Homo sapiens, UniProt Q8TBX8) | < 500 nM |
| O=C(CCC1CCNCC1)N1CCC(Nc2ncc(Cl)c(-c3cccc(-c4ccccc4)c3)n2)CC1 [Compound 7] | PIP4K2C (Homo sapiens, UniProt Q8TBX8) | < 500 nM |
| CNC(=O)[C@H]1CC[C@H](Nc2ncc(Cl)c(-c3cccc(-c4ccc[nH]c4=O)c3)n2)CC1 [Compound 155] | PIP4K2C (Homo sapiens, UniProt Q8TBX8) | < 500 nM |
| CC(C)(O)c1cc(-c2nc(N[C@H]3CC[C@H](C(N)=O)CC3)ncc2F)ccn1 [Compound 242] | PIP4K2C (Homo sapiens, UniProt Q8TBX8) | < 500 nM |
| CC(=O)N[C@H]1CC[C@H](Nc2ncc(F)c(-c3cccc(N4CCOCC4=O)c3)n2)CC1 [Compound 267] | PIP4K2C (Homo sapiens, UniProt Q8TBX8) | < 500 nM |
| CNC(=O)[C@H]1CC[C@H](Nc2ncc(Cl)c(-c3cnn(-c4cc[nH]c(=O)c4)c3)n2)CC1 [Compound 165] | PIP4K2C (Homo sapiens, UniProt Q8TBX8) | 500 to 1000 nM |

Lab note: measured IC50 of CC(=O)N1CCC[C@H](Nc2ncc(Cl)c(N3CCC(c4ccccn4)C3)n2)C1 (stereo partly drawn) [Compound 29] was 1000 to 5000 nM

Entry CC(=O)N[C@H]1CC[C@H](Nc2ncc(F)c(-c3cccc(C4(O)COC4)c3)n2)CC1 [Compound 176] , IC50 reported as < 500 nM

Entry CC(=O)N1CCC(Nc2ncc(Cl)c(-c3ccnc(-c4ccc(F)cc4)c3)n2)CC1 [Compound 105] — recorded IC50 = < 500 nM

The molecule listed as CC(=O)N1CCC(Nc2ncc(F)c(-c3cccc(-c4ccccc4)c3)n2)CC1 [Compound 611] shows IC50 equal to < 500 nM

Query CC(=O)N1CCC[C@H](Nc2ncc(Cl)c(-c3cccc(-c4ccc(F)cc4)c3)n2)C1 [Compound 128] yields IC50 of < 500 nM
